Please find below pIC50 data on Tyrosine-protein kinase JAK3 (Homo sapiens) compiled from the literature.
Target: Tyrosine-protein kinase JAK3 (Homo sapiens)
Sequence (P52333 whole entry): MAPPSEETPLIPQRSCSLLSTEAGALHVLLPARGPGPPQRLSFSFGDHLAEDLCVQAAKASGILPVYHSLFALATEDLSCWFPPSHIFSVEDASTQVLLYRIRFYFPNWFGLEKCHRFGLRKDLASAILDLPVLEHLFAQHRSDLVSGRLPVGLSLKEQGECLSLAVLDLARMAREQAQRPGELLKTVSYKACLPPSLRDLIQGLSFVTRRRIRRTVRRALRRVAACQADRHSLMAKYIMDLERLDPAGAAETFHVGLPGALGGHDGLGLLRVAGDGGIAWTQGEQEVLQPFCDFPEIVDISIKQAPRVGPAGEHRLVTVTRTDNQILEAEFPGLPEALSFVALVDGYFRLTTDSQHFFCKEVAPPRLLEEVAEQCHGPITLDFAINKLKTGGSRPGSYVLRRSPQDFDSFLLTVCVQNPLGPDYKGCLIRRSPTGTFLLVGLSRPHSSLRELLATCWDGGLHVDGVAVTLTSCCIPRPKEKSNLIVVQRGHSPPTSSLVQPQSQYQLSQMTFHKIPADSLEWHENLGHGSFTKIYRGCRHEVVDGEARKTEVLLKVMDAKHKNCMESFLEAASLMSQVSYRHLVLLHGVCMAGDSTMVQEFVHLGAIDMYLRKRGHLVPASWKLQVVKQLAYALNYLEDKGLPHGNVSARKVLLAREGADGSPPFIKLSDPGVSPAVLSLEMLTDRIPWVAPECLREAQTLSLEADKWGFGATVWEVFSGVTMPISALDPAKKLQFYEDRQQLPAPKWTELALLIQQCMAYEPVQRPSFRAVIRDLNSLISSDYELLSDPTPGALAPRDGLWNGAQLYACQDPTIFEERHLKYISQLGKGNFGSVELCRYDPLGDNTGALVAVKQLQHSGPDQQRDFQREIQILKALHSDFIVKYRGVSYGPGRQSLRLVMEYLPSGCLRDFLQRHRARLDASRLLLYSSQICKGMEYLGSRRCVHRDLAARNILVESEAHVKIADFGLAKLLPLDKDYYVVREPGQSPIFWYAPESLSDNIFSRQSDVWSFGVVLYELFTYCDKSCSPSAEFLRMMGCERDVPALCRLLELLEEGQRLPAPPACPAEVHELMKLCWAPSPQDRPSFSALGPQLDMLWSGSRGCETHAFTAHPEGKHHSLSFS
Remember the convention: pIC50 equals -log10 of concentration in molar.

See these solved cases before continuing.
C=CC(=O)Nc1cccc(-n2cnc3cnc(Nc4ccc(OC)cc4)nc32)c1 : 7.17
CN(c1ccccc1-c1cc(Cl)c2cnc(Nc3ccc(C4CCN(CC(N)=O)CC4)cc3)nn12)S(C)(=O)=O : 8.54
COc1cc2c(Nc3ncc(CC(=O)Nc4cccc(F)c4)s3)ncnc2cc1OCCCN1CCC(CO)CC1 : 4.60
CC(NC(=O)c1c[nH]c2ncc(C3CC3)nc12)C1CC1 (centres undefined) : 8.07
CS(=O)(=O)N1CCc2oc(-c3nc(Nc4ccc(OCCN5CCCC5)cc4)ncc3F)cc2C1 : 6.75
Cc1cnc(NCCN2CCOCC2)nc1-c1cnn(CCC#N)c1 : 4.30

Here's the next entry for you.
## Input // Input: `COc1cc(Nc2ncc(F)c(-c3cc4c(o3)CCN(S(C)(=O)=O)C4)n2)cc(OC)c1OC` . Output its pIC50 only.
## Output 6.75
